- target entity: human LPAR1 (Homo sapiens, UniProt Q92633)
- Sequence (Q92633 whole entry): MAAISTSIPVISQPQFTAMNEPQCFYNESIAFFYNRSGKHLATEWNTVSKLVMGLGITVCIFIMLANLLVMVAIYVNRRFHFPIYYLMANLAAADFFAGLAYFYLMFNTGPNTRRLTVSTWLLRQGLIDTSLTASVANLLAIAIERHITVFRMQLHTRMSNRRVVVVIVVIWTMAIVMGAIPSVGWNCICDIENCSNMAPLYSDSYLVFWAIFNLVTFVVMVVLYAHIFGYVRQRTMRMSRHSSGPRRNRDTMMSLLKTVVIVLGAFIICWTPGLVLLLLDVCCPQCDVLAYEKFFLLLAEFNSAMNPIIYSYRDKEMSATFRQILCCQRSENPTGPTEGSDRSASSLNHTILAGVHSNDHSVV
- protocol description: LPAR1 intracellular calcium mobilization assay (antagonist mode)
measure name: pEC50
API: returns pEC50 as number; meaning -log10 of concentration in mol/L.

Problem: Given the compound Cc1nc(-c2nnn(C)c2NC(=O)OC(C)c2cccnc2C(F)F)ccc1NS(C)(=O)=O (stereo not shown) [Compound 124] , what is its reported pEC50?
Solution: 5.97

Problem: How about Cc1nc(-c2nnn(C)c2NC(=O)O[C@H](C)c2cccc(Cl)c2)ccc1NS(C)(=O)=O [Compound 41] ?
Solution: 7.19

Problem: For COc1nc(-c2nnn(C)c2NC(=O)O[C@H](C)c2cccnc2Cl)ccc1NS(C)(=O)=O [Compound 146] then?
Solution: 6.24

Problem: Field entry: Cc1nc(-c2nnn(C)c2NC(=O)O[C@H](C)c2cc(Cl)cnc2Cl)ccc1NS(C)(=O)=O [Compound 142]
Solution: 6.85

Problem: Follow-up entry: Cc1nc(-c2nnn(C)c2NC(=O)OC(C)c2cncc(Cl)c2)ccc1NS(C)(=O)=O (stereo not shown) [Compound 83]
Solution: 6.21

Problem: Now give it for Cc1nc(-c2nnn(C)c2NC(=O)OC(C)c2cccnc2F)ccc1NS(C)(=O)=O (stereo not shown) [Compound 79] too.
Solution: 6.23

Problem: Please give the result for COCc1nc(-c2nnn(C)c2NC(=O)O[C@H](C)c2cc(F)cnc2Cl)ccc1NS(C)(=O)=O [Compound 144] too.
Solution: 6.63

Problem: Can you check Cc1nc(-c2nnn(C)c2NC(=O)O[C@H](C)c2cc(Cl)ccc2Cl)ccc1NS(C)(=O)=O [Compound 61] next?
Solution: 7.52

Problem: Same read-out for CCCCC[C@H](OC(=O)Nc1c(-c2ccc(NS(C)(=O)=O)c(C)n2)nnn1C)C(F)(F)F [Compound 47] ?
Solution: 6.88

Problem: Proceed to Cc1nc(-c2nnn(C)c2NC(=O)OC(C)c2cc(Cl)cnc2Cl)ccc1NS(C)(=O)=O (stereo not shown) [Compound 84]
Solution: 6.72

Problem: Same question for Cc1nc(-c2nnn(C)c2NC(=O)OC(C2CCCCC2)C(F)(F)F)ccc1NS(C)(=O)=O (stereo not shown) [Compound 48] please.
Solution: 6.79

Problem: Repeat for the following compound: Cc1nc(-c2nnn(C)c2NC(=O)O[C@H](C)c2ccccc2F)ccc1NS(C)(=O)=O [Compound 93]
Solution: 7.38

Problem: Next: C[C@@H](OC(=O)Nc1c(-c2ccc(NS(C)(=O)=O)cn2)nnn1C)c1cnsc1Cl [Compound 118]
Solution: 7.24

Problem: Subsequent entry: C[C@@H](OC(=O)Nc1c(-c2ccc(NS(C)(=O)=O)cn2)nnn1C)c1cccc(F)c1 [Compound 95]
Solution: 7.55

Problem: Also check Cc1nc(-c2nnn(C)c2NC(=O)O[C@@H](c2cccc(Cl)c2)C(F)F)ccc1NS(C)(=O)=O [Compound 62]
Solution: 7.54

Problem: Another: Cc1nc(-c2nnn(C)c2NC(=O)O[C@@H](c2ccccc2F)C(F)F)ccc1NS(C)(=O)=O [Compound 54]
Solution: 7.04

----------
- target entity: human LPAR1 (Homo sapiens, UniProt Q92633)
- protocol description: LPAR1 intracellular calcium mobilization assay (antagonist mode)
measure name: log10 of EC50 (log10 of the value in nM)
Scale type: logarithmic (base 10). Underlying EC50 unit: nM.

Problem: Any idea what its log10 of EC50 is? The molecule is `C[C@@H](OC(=O)Nc1c(-c2ccc(NS(C)(=O)=O)cn2)nnn1C)c1cc(Cl)cnc1F`
Solution: 1.62

Problem: Moving on to the next molecule: Cc1nc(-c2nnn(C)c2NC(=O)OC(C)c2cnc(Cl)nc2Cl)ccc1NS(C)(=O)=O (stereo not shown)
Solution: 3.23

Problem: Would you kindly repeat that for `Cc1nc(-c2nnn(C)c2NC(=O)O[C@H](C)c2cccc(F)c2F)ccc1NS(C)(=O)=O` ?
Solution: 2.49

Problem: Follow-up entry: Cc1nc(-c2nnn(C)c2NC(=O)OC(C)c2nccnc2Cl)ccc1NS(C)(=O)=O (stereo not shown)
Solution: 2.97

Problem: Try the molecule `COc1nc(-c2nnn(C)c2NC(=O)O[C@H](C)c2ccccc2Cl)ccc1NS(C)(=O)=O`
Solution: 1.79

Problem: Next up: `Cc1nc(-c2nnn(C)c2NC(=O)O[C@H](C)c2scnc2Cl)ccc1NS(C)(=O)=O`
Solution: 2.48

Problem: Try this molecule next: `C[C@@H](OC(=O)Nc1c(-c2ccc(NS(C)(=O)=O)c(F)n2)nnn1C)c1ccccc1Cl`
Solution: 1.54

Problem: Now try `CNS(=O)(=O)Nc1ccc(-c2nnn(C)c2NC(=O)O[C@H](C)c2cccnc2Cl)nc1C` .
Solution: 2.32

Problem: Next: `Cc1nc(-c2nnn(C)c2NC(=O)O[C@H](C)CC(C)C)ccc1NS(C)(=O)=O`
Solution: 2.06

Problem: Next entry: `C[C@@H](OC(=O)Nc1c(-c2ccc(NS(C)(=O)=O)cn2)nnn1C)c1ccccc1Cl`
Solution: 1.57

Problem: Item: Cc1nc(-c2nnn(C)c2NC(=O)OC(C)c2ccncc2F)ccc1NS(C)(=O)=O (stereo not shown)
Solution: 3.05

Problem: What about `C[C@@H](OC(=O)Nc1c(-c2ccc(NS(C)(=O)=O)c(Cl)n2)nnn1C)c1ccccc1` ?
Solution: 2.43

Problem: Next molecule up: `Cc1nc(-c2nnn(CC#N)c2NC(=O)O[C@H](C)c2ccccc2Cl)ccc1NS(C)(=O)=O`
Solution: 1.26

Problem: Consider next the molecule `CCCCCCOC(=O)Nc1c(-c2ccc(NS(C)(=O)=O)c(C)n2)nnn1C` in the same way.
Solution: 3.09

Problem: Also `Cc1nc(-c2nnn(C)c2NC(=O)O[C@H](C)c2cscc2Cl)ccc1NS(C)(=O)=O` , if possible.
Solution: 1.36

Problem: Same question for `Cc1nc(-c2nnn(C)c2NC(=O)OCCCC(C)C)ccc1NS(C)(=O)=O` please.
Solution: 2.51

Problem: Continue with `Cc1nc(-c2nnn(C)c2NC(=O)O[C@H](C)c2ccc(F)nc2C)ccc1NS(C)(=O)=O`
Solution: 2.52

Problem: Next entry: `Cc1nc(-c2nnn(C)c2NC(=O)O[C@H](C)c2cc(Cl)sc2Cl)ccc1NS(C)(=O)=O`
Solution: 1.22

Problem: Consider next the molecule `Cc1nc(-c2nnn(C)c2NC(=O)N[C@H](C)c2ccccc2)ccc1NS(C)(=O)=O` in the same way.
Solution: 3.44

Problem: Let us now turn to `COc1nc(-c2nnn(C)c2NC(=O)O[C@@H](c2ccccc2)C(F)F)ccc1NS(C)(=O)=O`
Solution: 2.05

Problem: Continue with `Cc1nc(-c2nnn(C)c2NC(=O)O[C@H](C)c2cc(F)c(F)cc2F)ccc1NS(C)(=O)=O`
Solution: 2.45

Problem: Now the molecule `Cc1nc(-c2nnn(C)c2NC(=O)O[C@H](C)c2cc(F)ccc2Cl)ccc1NS(C)(=O)=O`
Solution: 1.50

Problem: Please answer likewise for `Cc1nc(-c2nnn(C)c2NC(=O)O[C@H](C)c2cccc(F)c2)ccc1NS(=O)(=O)C1CC1`
Solution: 2.50

Problem: // same read-out, input: `Cc1nc(-c2nnn(C)c2NC(=O)O[C@H](C)c2ccnn2C)ccc1NS(C)(=O)=O`
Solution: 3.47

Problem: `Cc1ncc(F)cc1[C@@H](C)OC(=O)Nc1c(-c2ccc(NS(C)(=O)=O)cn2)nnn1C` , same question.
Solution: 2.03

Problem: Then what about the molecule `Cc1nc(-c2nnn(C)c2NC(=O)O[C@H](C)c2ccccc2Cl)ccc1NS(=O)(=O)C1CC1` ?
Solution: 1.75

Problem: Another molecule to check: Cc1nc(-c2nnn(C)c2NC(=O)OC(C)c2conc2C)ccc1NS(C)(=O)=O (stereo not shown)
Solution: 3.58

Problem: Field entry: `Cc1nc(-c2nnn(CC#N)c2NC(=O)O[C@H](C)c2ccccc2)ccc1NS(C)(=O)=O`
Solution: 1.65

----------
- target entity: human LPAR1 (Homo sapiens, UniProt Q92633)
- protocol description: LPAR1 intracellular calcium mobilization assay (antagonist mode)
Task for the reader: assign each of the following molecules its reported EC50.
Field format: number, assumed nM, no unit text.

Problem: Fill in the blank: the reported EC50 of CCc1ncccc1[C@@H](C)OC(=O)Nc1c(-c2ccc(NS(C)(=O)=O)c(C)n2)nnn1C [Compound 151] is ____.
Solution: 588

Problem: Next entry: COCc1ccccc1[C@@H](C)OC(=O)Nc1c(-c2ccc(NS(C)(=O)=O)c(C)n2)nnn1C [Compound 35]
Solution: 327

Problem: Try this molecule next: CCS(=O)(=O)Nc1ccc(-c2nnn(C)c2NC(=O)O[C@H](C)c2cccc(F)c2)nc1C [Compound 101]
Solution: 261

Problem: Okay, and Cn1nnc(-c2ccc(NS(C)(=O)=O)c(F)n2)c1NC(=O)O[C@@H](c1ccccc1)C(F)F [Compound 6] ?
Solution: 71.3

Problem: Now consider Cc1nc(-c2nnn(C)c2NC(=O)O[C@H](CC#N)c2ccccc2)ccc1NS(C)(=O)=O [Compound 50] and answer again.
Solution: 730

Problem: Again, but for Cc1nc(-c2nnn(C)c2NC(=O)O[C@H](C)c2cccc(F)c2)ccc1NS(=O)(=O)C1COC1 [Compound 109]
Solution: 705

Problem: Also C[C@@H](OC(=O)Nc1c(-c2ccc(NS(C)(=O)=O)c(Cl)n2)nnn1C)c1cccnc1Cl [Compound 154] , if possible.
Solution: 278

Problem: Now consider CCCCCC[C@H](OC(=O)Nc1c(-c2ccc(NS(C)(=O)=O)c(C)n2)nnn1C)C(F)(F)F [Compound 51] and answer again.
Solution: 1250

Problem: Same for CCCC[C@@H](C)OC(=O)Nc1c(-c2ccc(NS(C)(=O)=O)c(C)n2)nnn1C [Compound 28]
Solution: 171

Problem: Entry to check: Cc1ncc(S(=O)(=O)Nc2ccc(-c3nnn(C)c3NC(=O)O[C@H](C)c3cccc(F)c3)nc2C)s1 [Compound 107]
Solution: 1120

Problem: And the next one, CCCn1nnc(-c2ccc(NS(C)(=O)=O)c(C)n2)c1NC(=O)O[C@H](C)c1ccccc1Cl [Compound 12] ?
Solution: 221

Problem: Thanks! And Cc1nc(-c2nnn(C)c2NC(=O)OCc2cc(F)ccc2Cl)ccc1NS(C)(=O)=O [Compound 38] ?
Solution: 167

Problem: Again, but for Cc1nc(-c2nnn(C)c2NC(=O)O[C@H](C)c2cc(Cl)ccc2F)ccc1NS(C)(=O)=O [Compound 56]
Solution: 59.9

Problem: Check CC(OC(=O)Nc1c(-c2ccc(NS(C)(=O)=O)cn2)nnn1C)c1c(F)ccnc1Cl (stereo not drawn) [Compound 121] too.
Solution: 461

Problem: Moving on to Cc1nc(-c2nnn(C)c2NC(=O)O[C@@H](c2cccc(F)c2)C(F)F)ccc1NS(C)(=O)=O [Compound 58]
Solution: 43.9
